For each of the molecules below, state its pIC50.
System: BT474 (breast cancer) cells
Assay procedure: In vitro cell assay (MTS cell viability), BT474
Format: cell-based
Experimental setup: Homo sapiens, BT-474; free compounds (natural products and synthetic analogs); cell viability 96 hours after treatment
Please express pIC50 as -log10 of the molar concentration.

// pIC50 value for CSCCN(C)C(=O)C[C@@H]1C[C@@]2(CO2)[C@H](O)[C@@H](/C=C/C(C)=C/C[C@@H]2O[C@H](C)[C@H](NC(=O)/C=C\[C@H](C)OC(C)=O)C[C@@H]2C)O1 [#B82] : 9.54

// pIC50 value for CC(=O)O[C@@H](C)/C=C\C(=O)N[C@@H]1C[C@H](C)[C@H](C/C=C(C)/C=C/[C@H]2O[C@H](CC(=O)N(C)Cc3ccc(S(=O)(=O)N(C)C)cc3)C[C@@]3(CO3)[C@@H]2O)O[C@@H]1C [#B91] : 8.52

// pIC50 value for COC(=O)C[C@@H]1C[C@@]2(CO2)C[C@@H](/C=C/C(C)=C/C[C@@H]2O[C@H](C)[C@H](NC(=O)/C=C\[C@H](C)O)C[C@@H]2C)O1 [#B148] : 7.39
